tested on: T1, IHF from Staphylococcus aureus (Staphylococcus aureus, UniProt Q5HFV0 1-90)
T1 construct: also called IHF (Sa); HU; not shown: poly-histidine tag
T1 sequence: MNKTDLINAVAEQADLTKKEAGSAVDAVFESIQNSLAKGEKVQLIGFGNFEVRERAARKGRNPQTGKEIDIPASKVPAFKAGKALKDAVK
experiment summary: ELISA
quantity measured: OD

Example entries begin here.
{"binder": "TRL1230 (antibody, V domains shown) VH: QVQLVQSGGGLVKPGGSLRLSCGASGFNLSSYSMNWVRQAPGKGLEWVSSISSRSSYIYYADSVQGRFTISRDNAKNSLYLQMNSLRAEDTAIYYCARVSPSTYYYYGMDVWGQGTTVTVSS VL: DIVLTQPSSVSVSPGQTARITCSGDELPKQYAYWYQQKPGQAPVLVIYKDNERPSGIPERFSGSSSGTTVTLTISGVQAEDEADYYCQSADSSGTYVVFGGGTKLTVL", "OD": "0.1 OD"}
{"binder": "TRL1070 (antibody, V domains shown) VH: QVQLVQSGGTLVQPGGSLRLSCAASGFTFSYYSMSWVRQAPGKGLEWVANIKHDGTERNYVDSVKGRFTISRDNSEKSLYLQMNSLRAEDTAVYYCAKYYYGAGTNYPLKYWGQGTRVTVSS VL: DILMTQSPSSLSASVGDRVTITCRASQGIRNDLGWYQQKPGKAPKLLIYAASSLQSGVPSRFSGSGSGTDFTLTISSLQPEDFATYYCLQDYNYPLTFGGGTKVEIKR", "OD": "0.3 OD"}

Now examine the next entry.
Find the recorded OD belonging to TRL1232 (antibody, V domains shown) VH: QVQLVESGAEVKKPGALVKVSCKASGYTFSGYYMHWVRQAPGQGLEWMGWINPKSGGTKYAQKFQGRVTMTRDTSISTAYMELSRLRSDDTAVYFCARGGPSNLERFLERLQPRYSYDDKYAMDVWGQGTTVTVSS VL: DIVMTQSPGTLSLSPGARATLSCRASQSVSSIYLAWYQQKPGQAPRLLIFGASSRATGIPDRFSGSGSGTDFTLTISRLEPEDFAVYYCQQYGSSPYTFGQGTKLEIKR and report it. 0.2 OD
